# Target Entity: human ACC2 (Homo sapiens)
# Construct: made in house; host or cells: insect cells (baculoviral expression system)
# Sequence (O00763 129-2458 limits assumed): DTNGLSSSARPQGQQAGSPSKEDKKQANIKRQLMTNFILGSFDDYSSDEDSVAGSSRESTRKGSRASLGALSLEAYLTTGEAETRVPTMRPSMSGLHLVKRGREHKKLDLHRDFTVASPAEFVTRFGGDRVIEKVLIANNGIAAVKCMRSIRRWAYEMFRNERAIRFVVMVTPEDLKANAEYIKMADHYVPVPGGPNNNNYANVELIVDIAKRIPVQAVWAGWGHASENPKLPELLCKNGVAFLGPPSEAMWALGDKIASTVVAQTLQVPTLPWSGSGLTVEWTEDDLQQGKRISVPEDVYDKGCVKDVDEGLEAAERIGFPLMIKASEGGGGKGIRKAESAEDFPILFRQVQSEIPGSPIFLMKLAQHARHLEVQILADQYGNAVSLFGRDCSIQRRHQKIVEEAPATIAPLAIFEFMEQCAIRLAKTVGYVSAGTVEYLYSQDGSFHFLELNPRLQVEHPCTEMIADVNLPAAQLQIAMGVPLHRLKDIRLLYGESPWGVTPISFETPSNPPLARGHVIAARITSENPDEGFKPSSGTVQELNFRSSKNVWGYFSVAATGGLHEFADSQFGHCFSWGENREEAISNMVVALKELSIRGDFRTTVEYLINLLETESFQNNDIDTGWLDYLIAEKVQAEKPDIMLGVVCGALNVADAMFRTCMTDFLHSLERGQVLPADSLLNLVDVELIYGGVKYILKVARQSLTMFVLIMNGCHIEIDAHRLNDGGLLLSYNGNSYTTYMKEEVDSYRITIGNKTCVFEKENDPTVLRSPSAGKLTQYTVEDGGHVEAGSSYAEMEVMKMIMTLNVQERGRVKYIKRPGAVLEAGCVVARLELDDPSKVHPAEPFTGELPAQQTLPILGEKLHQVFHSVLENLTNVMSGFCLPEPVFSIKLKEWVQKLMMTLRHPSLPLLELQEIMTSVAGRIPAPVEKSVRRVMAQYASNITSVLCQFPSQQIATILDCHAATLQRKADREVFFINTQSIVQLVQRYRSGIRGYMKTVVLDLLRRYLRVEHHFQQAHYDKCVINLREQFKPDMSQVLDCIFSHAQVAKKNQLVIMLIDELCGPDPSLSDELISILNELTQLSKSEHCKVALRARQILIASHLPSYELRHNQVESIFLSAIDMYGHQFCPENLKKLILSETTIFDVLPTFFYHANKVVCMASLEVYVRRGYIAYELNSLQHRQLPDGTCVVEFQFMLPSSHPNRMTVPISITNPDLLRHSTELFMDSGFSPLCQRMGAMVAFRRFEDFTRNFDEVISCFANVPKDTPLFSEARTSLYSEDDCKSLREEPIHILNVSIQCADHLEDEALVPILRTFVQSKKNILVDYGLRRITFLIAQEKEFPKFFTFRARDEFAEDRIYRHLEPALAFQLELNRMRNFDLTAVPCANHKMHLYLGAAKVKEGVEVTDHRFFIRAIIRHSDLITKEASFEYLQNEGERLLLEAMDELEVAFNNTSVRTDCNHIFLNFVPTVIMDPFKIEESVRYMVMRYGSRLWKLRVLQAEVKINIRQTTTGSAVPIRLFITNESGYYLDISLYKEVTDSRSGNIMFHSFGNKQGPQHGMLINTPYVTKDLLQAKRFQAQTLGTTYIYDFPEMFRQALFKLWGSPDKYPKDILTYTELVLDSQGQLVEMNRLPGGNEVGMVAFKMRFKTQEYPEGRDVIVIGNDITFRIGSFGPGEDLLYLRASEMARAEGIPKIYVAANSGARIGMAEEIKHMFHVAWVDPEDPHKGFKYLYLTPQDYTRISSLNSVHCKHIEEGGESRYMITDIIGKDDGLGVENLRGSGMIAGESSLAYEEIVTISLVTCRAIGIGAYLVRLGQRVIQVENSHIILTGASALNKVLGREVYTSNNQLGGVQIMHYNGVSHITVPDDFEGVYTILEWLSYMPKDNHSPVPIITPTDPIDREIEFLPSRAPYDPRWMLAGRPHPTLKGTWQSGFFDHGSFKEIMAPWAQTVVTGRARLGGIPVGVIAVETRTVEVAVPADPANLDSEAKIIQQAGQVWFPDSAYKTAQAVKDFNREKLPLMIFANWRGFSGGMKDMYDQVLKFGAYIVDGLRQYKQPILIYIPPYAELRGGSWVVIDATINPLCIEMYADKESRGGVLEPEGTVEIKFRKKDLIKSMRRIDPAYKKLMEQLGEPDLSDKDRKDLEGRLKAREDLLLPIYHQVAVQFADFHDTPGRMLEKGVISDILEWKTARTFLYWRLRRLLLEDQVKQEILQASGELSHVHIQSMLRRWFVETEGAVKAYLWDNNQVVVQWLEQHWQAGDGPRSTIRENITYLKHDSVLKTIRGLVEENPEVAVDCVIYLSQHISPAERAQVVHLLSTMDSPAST
# Test Details: ACC2 assay, spectrophotometric 384 well assay (NADH-linked, coupled lactate dehydrogenase/pyruvate kinase)
# Type: biochemical
# Condition Notes: ACC2 assay, hACC2 construct lacking 128 N-terminal amino acids, 25° C., 340 nm; read-out: IC50
pIC50: −log10 of the molar value.
Measurement Name: pIC50

>  <Molecule>
CCOc1ccc(N2CCC(c3ccc([C@H](C)NC(=O)c4ccco4)cc3)CC2)cc1 [Example 6.4]

>  <Target Entity>
human ACC2 (Homo sapiens)

>  <Measurement Name>
pIC50

>  <Numeric Readout>
5.68

$$$$
>  <Molecule>
CC(=O)N[C@@H](C)c1ccc(C2CCN(c3cc(N(C)C)ncn3)CC2)cc1 [Example 11.105]

>  <Target Entity>
human ACC2 (Homo sapiens)

>  <Measurement Name>
pIC50

>  <Numeric Readout>
5.77

$$$$
>  <Molecule>
CCC(NC(C)=O)c1ccc(C2CCN(c3ccc(OCC4CC4)cc3)CC2)cc1 (centres unmarked) [Example 1.203]

>  <Target Entity>
human ACC2 (Homo sapiens)

>  <Measurement Name>
pIC50

>  <Numeric Readout>
6.21

$$$$
>  <Molecule>
CCOc1ccc(N2CCC(c3ccc([C@H](C)NC(=O)NC)cc3)CC2)cc1 [Example 14.1]

>  <Target Entity>
human ACC2 (Homo sapiens)

>  <Measurement Name>
pIC50

>  <Numeric Readout>
6.33

$$$$
>  <Molecule>
C[C@H](NC(=O)C1CC1)c1ccc(C2CCN(c3ccc(OCC4CCC4)cc3)CC2)cc1 [Example 1.141]

>  <Target Entity>
human ACC2 (Homo sapiens)

>  <Measurement Name>
pIC50

>  <Numeric Readout>
6.49

$$$$

I. C[C@H](NC(=O)C1CC1)c1ccc(C2CCN(c3ccc(OC4CC4)cc3)CC2)cc1 [Example 1.14]
II. CC(=O)N[C@@H](C)c1ccc(C2CCN(c3ccc(OC4CC4)cc3OC3CC3)CC2)cc1 [Example 1.94]
III. CC(=O)N[C@@H](C)c1ccc(C2CCN(c3ccc4cc(Cl)ccc4n3)CC2)cc1 [Example 4.10]
Query :: Give the ascending ranking of the items by reported pIC50. Labels, requested order.
Result :: III, II, I
(III: 6.17, II: 6.68, I: 7.00)
